Target: Neu5Ac(a2-6)Gal(b1-4)GlcNAc(b1-6)GalNAc
Test: glycan array binding signal (z-score within array); higher = stronger binding
Conditions: glycan notation: IUPAC condensed, linker removed
Only a selection was taken, and the strongest signals are over-represented in it overall.
assay-readout: glycan array binding signal (z-score)
// response body must contain only the number

Solved cases below.
binder: Pwp5 ND (Candida glabrata) (protein) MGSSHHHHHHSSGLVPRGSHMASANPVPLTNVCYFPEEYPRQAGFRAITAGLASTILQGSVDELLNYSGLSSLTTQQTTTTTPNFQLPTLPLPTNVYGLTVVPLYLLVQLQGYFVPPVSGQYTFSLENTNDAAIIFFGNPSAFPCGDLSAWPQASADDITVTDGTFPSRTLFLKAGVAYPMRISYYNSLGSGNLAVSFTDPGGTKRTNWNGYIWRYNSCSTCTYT
numeric-result: 3.96

binder: Protein L(B1-B4) (Finegoldia magna), Q51912 (protein) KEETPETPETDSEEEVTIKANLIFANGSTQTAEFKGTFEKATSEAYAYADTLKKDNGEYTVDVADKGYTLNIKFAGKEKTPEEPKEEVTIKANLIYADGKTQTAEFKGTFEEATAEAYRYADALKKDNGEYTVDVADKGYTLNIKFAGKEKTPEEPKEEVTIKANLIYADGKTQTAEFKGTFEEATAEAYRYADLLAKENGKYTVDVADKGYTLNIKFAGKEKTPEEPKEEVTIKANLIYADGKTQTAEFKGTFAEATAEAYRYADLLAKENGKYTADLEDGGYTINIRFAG
numeric-result: 3.08

binder: LngA (Escherichia coli) (protein) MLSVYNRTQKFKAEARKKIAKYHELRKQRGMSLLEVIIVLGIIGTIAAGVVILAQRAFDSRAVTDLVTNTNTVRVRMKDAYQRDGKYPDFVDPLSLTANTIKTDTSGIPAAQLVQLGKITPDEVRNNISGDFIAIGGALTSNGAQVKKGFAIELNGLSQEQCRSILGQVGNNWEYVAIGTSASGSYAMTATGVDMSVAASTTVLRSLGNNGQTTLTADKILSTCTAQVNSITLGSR
numeric-result: 2.77

Here is the next item to consider.
**Q:** Give the measured glycan array binding signal (z-score) of PLU (Photorhabdus luminiscence) (protein) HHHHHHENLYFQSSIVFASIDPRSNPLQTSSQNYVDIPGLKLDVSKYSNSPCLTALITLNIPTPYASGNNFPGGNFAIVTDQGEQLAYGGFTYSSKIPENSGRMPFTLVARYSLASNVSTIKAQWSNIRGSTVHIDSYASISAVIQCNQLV .
**A:** -0.292
